Tested on: RXF 393 renal
Test: NCI tumour cell line growth inhibition, 48 h
Label scheme for TGI: lower than 30 µM is N, 30 µM and above is Y.

stdin: Please tell me: is the molecule COC1C=COC2(C)Oc3c(C)c(O)c4c(O)c(c(C5SCCS5)c(O)c4c3C2=O)NC(=O)/C(C)=C\C=CC(C)C(O)C(C)C(O)C(C)C(OC(C)=O)C1C (centres undefined) at or over 30 µM in terms of TGI?
stdout: N

stdin: Similarly, NC(CCP(=O)(O)O)C(=O)O (centres undefined) ?
stdout: Y

stdin: Similarly, `O=C(Nc1ccc(Cl)cc1)c1cc([N+](=O)[O-])ccc1O` ?
stdout: N

stdin: Similarly, CC(=O)OCC1OC(NC(=O)N(CCCl)N=O)C(OC(C)=O)C(OC(C)=O)C1OC(C)=O (centres undefined) ?
stdout: Y

stdin: Similarly, `NC(=O)c1ccc([N+](=O)[O-])cc1` ?
stdout: Y

stdin: Similarly, `CCOC(=O)/C(C(=S)NCc1ccccc1)=C(/N)N1CCCC1` ?
stdout: Y

stdin: Similarly, `Cn1c(=O)cc2[nH]c3ccccc3n2c1=O` ?
stdout: Y

stdin: Similarly, `CCCc1nc(Cl)c(Cl)c(Cl)n1` ?
stdout: Y

stdin: Similarly, `O=C1OCC(c2ccc(Cl)cc2)=C1Cl` ?
stdout: Y

stdin: Similarly, `CC(C)COC1Sc2ccccc2S1` ?
stdout: Y

stdin: Similarly, NC(Cc1c[nH]c2ccc([N+](=O)[O-])cc12)C(=O)O (centres undefined) ?
stdout: Y

stdin: Similarly, O=C(c1ccc([N+](=O)[O-])cc1)C(Br)C(Br)c1ccnc2ccccc12 (centres undefined) ?
stdout: N

stdin: Similarly, `N#Cc1ccc(Oc2ccccc2)cc1C#N` ?
stdout: Y

stdin: Similarly, `CCCCOc1ccc(/C=N/Nc2cc(C)nc3ccc(Br)cc23)cc1` ?
stdout: N

stdin: Similarly, `COc1ccc2c(c1)CCc1cc(OC)ccc1/[N+]([O-])=[N+]\2[O-]` ?
stdout: N

stdin: Similarly, `Cc1nc2cc3ccccc3cc2[nH]c1=O` ?
stdout: Y

stdin: Similarly, `Cc1ccc(Cl)c(NS(=O)(=O)c2ccc(-c3cnc(C4CC4)o3)cc2)c1` ?
stdout: Y

stdin: Similarly, `O=[N+]([O-])c1cc(-[n+]2cc([O-])on2)ccc1Cl` ?
stdout: N

stdin: Similarly, Clc1ccc2c(c1)N(C1CCCN(Cc3ccccc3)C1)c1ccccc1S2 (centres undefined) ?
stdout: N

stdin: Similarly, CCOC(=O)OC1C(Br)C2CCC1(C)C2(C)C (centres undefined) ?
stdout: N
